Target: recombinant USP1 protein (Homo sapiens, UniProt O94782, DEL125-138/DEL229-408/DEL608-737)
Sequence (O94782 with tags, fused parts or gaps DEL125-138/DEL229-408/DEL608-737): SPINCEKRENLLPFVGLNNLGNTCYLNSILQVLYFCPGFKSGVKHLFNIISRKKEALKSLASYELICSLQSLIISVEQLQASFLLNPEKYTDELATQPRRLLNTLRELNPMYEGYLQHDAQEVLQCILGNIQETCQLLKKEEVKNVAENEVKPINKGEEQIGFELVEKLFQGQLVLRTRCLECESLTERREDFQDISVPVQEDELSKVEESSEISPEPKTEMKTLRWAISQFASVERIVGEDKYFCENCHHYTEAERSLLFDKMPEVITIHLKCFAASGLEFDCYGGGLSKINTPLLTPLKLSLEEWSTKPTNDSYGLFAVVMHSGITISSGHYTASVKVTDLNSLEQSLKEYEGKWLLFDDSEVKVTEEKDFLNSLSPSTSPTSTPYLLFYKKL
Assay: Binding affinity to recombinant USP1 protein by differential scanning fluorimetry
Conditions: compound 100 µM; 0.03 mg/mL USP1 (Δ1-66, Δ125-138, Δ229-408, Δ608-737); Tm with compound minus Tm with DMSO; read-out: ΔTm (°C)
Overview of reported ΔTm at 100 µM across a group of compounds:
REPORTED ENDPOINT: ΔTm at 100 µM

- COc1ncnc(C2CC2)c1-c1ncc2cc(C(=O)N(C)C)n(Cc3ccc(-c4nc(C(F)(F)F)cn4C)cc3)c2n1 [Example 204]: > 5 °C
- CNC(=O)c1cc2cnc(-c3c(OC)ncnc3C3CC3)nc2n1Cc1ccc(-c2cc(C)ccn2)cc1 [Example 209]: > 5 °C
- COc1ncnc(C2CC2)c1-c1ncc2cc(C(=O)N3C[C@H]4C[C@@H]3CO4)n(Cc3ccc(-c4nc(C(F)(F)F)cn4C(C)C)cc3)c2n1 [Example 65]: > 5 °C
- COc1ncnc(C2CC2)c1-c1ncc2cc(C(=O)NCCCN(C)C)n(Cc3ccc(-c4nc(C(F)(F)F)cn4C(C)C)cc3)c2n1 [Example 33]: > 5 °C
- COc1ncnc(C2CC2)c1-c1ncc2cc(C(=O)NC[C@@H](O)C(C)C)n(Cc3ccc(-c4nc(C(F)(F)F)cn4C)cc3)c2n1 [Example 190]: > 5 °C
- COc1ncnc(C2CC2)c1-c1ncc2cc(C(=O)N3CCNCC3)n(Cc3ccc(-c4nc(C(F)(F)F)cn4C(C)C)cc3)c2n1 [Example 54]: > 5 °C
